Assay: Plasma concentration in syrian hamster infected with Leishmania infantum BCN150 promastigote at 20 mg/kg/day, po for 10 days
Type: ADME, organism-based, Mesocricetus auratus
VALUE_KIND: concentration at 240 h (µM)
Give just the numeric value; µM need not be written.

INPUT: Please give the measured concentration at 240 h for this compound: CCCCCCCCCCCCCCCCOP(=O)([O-])OCC[N+](C)(C)C
OUTPUT: 59.3

----------
Molecular target: CYP2D6 (Homo sapiens, UniProt P10635)
Sequence (P10635 whole entry): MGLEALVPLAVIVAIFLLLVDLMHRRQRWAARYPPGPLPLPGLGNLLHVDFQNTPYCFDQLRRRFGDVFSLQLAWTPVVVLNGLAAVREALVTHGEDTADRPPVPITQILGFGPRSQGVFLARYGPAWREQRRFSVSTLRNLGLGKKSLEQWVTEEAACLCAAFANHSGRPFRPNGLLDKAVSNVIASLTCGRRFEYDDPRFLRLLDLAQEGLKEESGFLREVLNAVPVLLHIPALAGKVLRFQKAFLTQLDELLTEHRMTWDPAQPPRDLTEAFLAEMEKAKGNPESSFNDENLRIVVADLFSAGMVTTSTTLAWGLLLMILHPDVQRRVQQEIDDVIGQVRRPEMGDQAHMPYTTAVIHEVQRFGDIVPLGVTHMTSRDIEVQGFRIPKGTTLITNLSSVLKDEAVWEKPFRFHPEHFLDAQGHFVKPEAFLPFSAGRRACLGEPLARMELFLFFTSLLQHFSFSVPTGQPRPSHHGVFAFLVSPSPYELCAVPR
Assay: Inhibition of human microsomal CYP2D6 expressed in baculovirus infected insect cells at 10 uM using luciferin-ME as substrate preincubated with enzyme/substrate mixture for 30 mins followed by further incubation with NADPH for 30 mins by CYP450 luciferase Glo assay relative to control
Assay type: ADME
Conditions: probe luciferin-ME
VALUE_KIND: inhibition at 0.5 h, 10 µM (%)
Give just the numeric value; % need not be written.

>>> observed_result("COc1ccc2oc(-c3cc(C)cs3)c(O)c(=O)c2c1")
30.6
>>> observed_result("Cc1ccc2c(=O)c(O)c(-c3csc4ccccc34)oc2c1")
28.1
>>> observed_result("COc1cccc2oc(-c3cc(C)cs3)c(O)c(=O)c12")
21.2

Then this compound:
INPUT: Please give the measured inhibition at 0.5 h, 10 µM for this compound: Cc1ccsc1-c1oc2cc(O)ccc2c(=O)c1O
OUTPUT: 24.1

----------
Target: CYP1A2 (Homo sapiens, UniProt P05177)
Sequence (P05177 whole entry): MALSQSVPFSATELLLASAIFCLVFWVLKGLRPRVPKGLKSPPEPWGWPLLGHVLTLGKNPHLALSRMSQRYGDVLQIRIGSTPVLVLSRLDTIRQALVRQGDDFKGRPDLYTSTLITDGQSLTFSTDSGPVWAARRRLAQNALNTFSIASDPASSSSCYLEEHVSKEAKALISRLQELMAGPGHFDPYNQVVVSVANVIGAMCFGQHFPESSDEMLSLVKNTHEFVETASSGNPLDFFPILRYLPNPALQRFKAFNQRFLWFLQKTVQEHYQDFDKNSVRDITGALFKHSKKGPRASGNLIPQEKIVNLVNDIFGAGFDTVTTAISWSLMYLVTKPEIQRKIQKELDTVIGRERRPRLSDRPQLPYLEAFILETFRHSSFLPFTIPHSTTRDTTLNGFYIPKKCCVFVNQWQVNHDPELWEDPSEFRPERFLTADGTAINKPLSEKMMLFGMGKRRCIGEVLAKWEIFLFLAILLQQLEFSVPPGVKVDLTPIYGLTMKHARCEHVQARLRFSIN
Experiment: Inhibition of human microsomal CYP1A2 expressed in baculovirus infected insect cells at 10 uM using luciferin-1A2 as substrate preincubated with enzyme/substrate mixture for 30 mins followed by further incubation with NADPH for 30 mins by CYP450 luciferase Glo assay relative to control
Assay type: ADME
Settings: probe luciferin-1A2
VALUE_KIND: inhibition at 0.5 h, 10 µM (%)
Give just the numeric value; % need not be written.

Example compounds with recorded inhibition at 0.5 h, 10 µM:
>>> observed_result("O=c1c(O)c(-c2csc3ccccc23)oc2cc(F)ccc12")
80.6
>>> observed_result("CCCOc1c(-c2csc3ccccc23)oc2ccc(OC)cc2c1=O")
57.2
>>> observed_result("O=c1c(O)c(-c2csc3ccccc23)oc2cc(Cl)ccc12")
57.5
>>> observed_result("O=c1c(O)c(-c2csc3ccccc23)oc2ccc(F)cc12")
86.4
>>> observed_result("CCCCCCCCCCCCCCCCOP(=O)([O-])OCC[N+](C)(C)C")
-20

Then this compound:
INPUT: Please give the measured inhibition at 0.5 h, 10 µM for this compound: COc1ccc2oc(-c3ccc4ncccc4c3)c(O)c(=O)c2c1
OUTPUT: 27.4

----------
Biological target: CYP1A2 (Homo sapiens, UniProt P05177)
Assay: Inhibition of human microsomal CYP1A2 expressed in baculovirus infected insect cells at 10 uM using luciferin-1A2 as substrate preincubated with enzyme/substrate mixture for 30 mins followed by further incubation with NADPH for 30 mins by CYP450 luciferase Glo assay relative to control
Type: ADME
Conditions: probe luciferin-1A2
VALUE_KIND: inhibition at 0.5 h, 10 µM (%)
Give just the numeric value; % need not be written.

>>> observed_result("COc1ccc2oc(-c3csc4ccccc34)c(O)c(=O)c2c1")
99.7
>>> observed_result("COc1ccc2oc(-c3csc4ccccc34)c(OC(C)=O)c(=O)c2c1")
90.7

INPUT: Please give the measured inhibition at 0.5 h, 10 µM for this molecule: O=c1c(O)c(-c2csc3ccccc23)oc2ccc(Br)cc12
OUTPUT: 78

INPUT: Next: Cc1csc(-c2oc3ccc(C)cc3c(=O)c2O)c1
OUTPUT: 98.8

INPUT: Next: COc1ccc2oc(-c3cccc(-c4ccc5c(c4)OCO5)c3)c(O)c(=O)c2c1
OUTPUT: 61.8

INPUT: Next: COc1ccc2oc(-c3cc(C)cs3)c(O)c(=O)c2c1
OUTPUT: 94.8

INPUT: Next: Cc1ccsc1-c1oc2cc(O)ccc2c(=O)c1O
OUTPUT: 108

INPUT: Next: COc1ccc2oc(-c3cn(C)c4ccccc34)c(O)c(=O)c2c1
OUTPUT: 89.2

INPUT: Next: CCOc1ccc2c(=O)c(O)c(-c3csc4ccccc34)oc2c1
OUTPUT: 81.8
